Overview of reported OD450 across a group of binders:
Molecular target: T1, human MSLN-R2-his protein (human, UniProt Q13421 391-486)
T1 construct: it is put last here; also called human MSLN-R2 protein; hMSLN-R2-his; not shown: His tag
T1 sequence (Q13421 other isoform, or with tags, fused parts or gaps): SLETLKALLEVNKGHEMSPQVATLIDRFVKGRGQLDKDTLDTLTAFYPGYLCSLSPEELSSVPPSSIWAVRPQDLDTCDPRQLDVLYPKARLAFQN
Assay: ELISA on coated antigen, antibody 0.02 nM
observable: OD450

binder="S009-F7.2.3 (antibody, human IgG1, kappa, V domains shown, Human-murine chimeric antibody, human IgG1 heavy and kappa light constant regions) VH: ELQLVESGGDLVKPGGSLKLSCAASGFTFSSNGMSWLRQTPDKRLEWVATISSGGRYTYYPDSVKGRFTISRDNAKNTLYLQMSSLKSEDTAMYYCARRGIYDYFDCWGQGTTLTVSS VL: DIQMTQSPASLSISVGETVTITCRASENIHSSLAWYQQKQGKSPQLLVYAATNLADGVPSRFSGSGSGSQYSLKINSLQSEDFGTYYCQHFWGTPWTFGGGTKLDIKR" recorded_measurement="1.22 OD"
binder="S009-F7.67.12 (antibody, human IgG1, kappa, V domains shown, Human-murine chimeric antibody, human IgG1 heavy and kappa light constant regions) VH: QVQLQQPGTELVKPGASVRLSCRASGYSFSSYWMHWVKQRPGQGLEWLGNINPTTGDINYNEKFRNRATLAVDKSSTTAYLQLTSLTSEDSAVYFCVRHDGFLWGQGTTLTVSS VL: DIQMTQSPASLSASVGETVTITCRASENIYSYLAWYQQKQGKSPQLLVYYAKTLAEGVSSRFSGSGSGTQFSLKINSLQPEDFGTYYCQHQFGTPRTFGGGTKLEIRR" recorded_measurement="0.05 OD"
binder="S009-F7.61.21 (antibody, human IgG1, kappa, V domains shown, Human-murine chimeric antibody, human IgG1 heavy and kappa light constant regions) VH: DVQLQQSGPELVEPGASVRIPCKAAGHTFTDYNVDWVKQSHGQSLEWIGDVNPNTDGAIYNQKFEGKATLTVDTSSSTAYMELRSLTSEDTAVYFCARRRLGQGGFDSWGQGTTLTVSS VL: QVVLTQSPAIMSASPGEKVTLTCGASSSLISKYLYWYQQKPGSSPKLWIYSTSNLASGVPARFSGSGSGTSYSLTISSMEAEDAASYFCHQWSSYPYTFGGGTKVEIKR" recorded_measurement="0.05 OD"
